- method: chemical genetic growth profiling, strain panel (AID 1159580);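 note: tested at 20 µM; growth read once vehicle control cultures reached saturation at 30 °C; 1 = growth at the plate median or of vehicle wells; lower values mean less growth of the strain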
- details: S. cerevisiae deletion strains, growth OD, locus YML124C, strain tub3, hits give low values
In all, about 5,500 compounds went through this assay and about 2,000 (36%) were called active. Roughly 18% stayed inconclusive and do not appear here. Some of the results follow.
The following compounds are listed with their measured normalized growth values.
measurement_name: normalized growth

> print(dat)
                                   compound   measurement.name  measured.result
1  O=C1c2ccc(O)cc2O[C@H](c2cc(O)c(O)c(O)c2)[C@H]1O  normalized growth             1.02
2  C=C[C@@](C)(O)CCC1C(=C)C[C@H](O)C2C(C)(C)CCCC12C (stereo partly specified)  normalized growth             1.02
3  C=C[C@@](C)(O)CCC1C(=C)C[C@H](OC(C)=O)C2C(C)(C)CCCC12C (stereo partly specified)  normalized growth                1
4           Cc1ncc(CNC(=O)N(CCCl)N=O)c(N)n1  normalized growth            0.989
5  C=C[C@@](C)(O)CCC1C(=C)CCC2[C@@](C)(CO)CCC[C@]12C (stereo partly specified)  normalized growth             1.04
6       COC(=O)c1cc(=O)c(O)c2c(O)c(O)ccc2c1  normalized growth            0.952

----------
- method: chemical genetic growth profiling, strain panel (AID 1159580)
- details: S. cerevisiae deletion strains, growth OD, locus YHR079C, strain IRE1
Screen size: about 5,500 compounds; about 2,000 (36%) were called active. Another 18% or so got no clear call; they are omitted. Cut-off read from the data, not from the text of the source: active = normalized growth mostly below about 0.91 (no sharp cut-off); inconclusive = no clear call, values can overlap the other calls; inactive = mostly above about 0.92. The list shows a part of the results.
Classes used: true = active, false = inactive

molecule	category
C/C(Cc1nnn(-c2cc(C)on2)n1)=N/OC(=O)Nc1ccc(Cl)cc1	false
O=C(/C=C/c1ccc2c(c1)OCO2)Nc1ccc(Br)cc1	false
Cc1ccc(C(=O)Nc2ccc(S(=O)(=O)O)c3cc(S(=O)(=O)O)cc(S(=O)(=O)O)c23)cc1NC(=O)c1cccc(NC(=O)Nc2cccc(C(=O)Nc3cc(C(=O)Nc4ccc(S(=O)(=O)O)c5cc(S(=O)(=O)O)cc(S(=O)(=O)O)c45)ccc3C)c2)c1	false
Oc1c(Cl)cc(Cl)cc1C=Nc1nc(-c2ccc3ccccc3c2)cs1	false
CN1C2CCC1CC(OC(c1ccccc1)c1ccccc1N)C2 (stereo not given)	false
CC1(C)CC(=O)C=C(Sc2nc3ccccc3o2)C1	false
CCN(CC)Cc1ccc(Nc2ccnc3cc(Cl)ccc23)cc1O	false
COC(=O)c1cc(=O)c(O)c2c(O)c(O)ccc2c1	true
O=[N+]([O-])c1ccc(ON=C2CCCCC2)c([N+](=O)[O-])c1	false
c1ccc2c(c1)sc1ccccc12	false
Cc1cccc(NC(=S)N/N=C\c2ccc(F)cc2)c1	false
CC1(O)CC2C(CC1O)C2(C)C (stereo not given)	false
CN1C2C[C@H](OC(=O)[C@H](CO)c3ccccc3)C[C@H]1[C@@H](O)C2	false
C/C=C(\C)C(=O)O[C@H]1C[C@@H](OC(C)=O)[C@@]2(C(=O)OC)CO[C@@H]3C2[C@]12CO[C@](O)(C(=O)OC)[C@H]2[C@](C)(C12O[C@@]1(C)[C@H]1C[C@@H]2OC2OC=C[C@@]21O)[C@@H]3O (stereo not given in full)	false
O=C(/C=C/c1ccc(O)c(O)c1)OC(Cc1ccc(O)c(O)c1)C(=O)O (stereo not given)	false

----------
- method: chemical genetic growth profiling, strain panel (AID 1159580);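 note: tested at 20 µM; growth read once vehicle control cultures reached saturation at 30 °C; 1 = growth at the plate median or of vehicle wells; lower values mean less growth of the strain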
- details: S. cerevisiae deletion strains, growth OD, locus YIR030C, strain dcg1, hits give low values
Out of some 5,500 compounds screened, about 2,000 (36%) were called active. Inconclusive results (about 18%) are left out. The list shows a part of the results.
measurement_name: normalized growth

compound	measurement_name	measured_result
CC1(C)CCC[C@@]2(C)C1[C@@H](O)C[C@]1(C)C2CC[C@@H]2[C@@]3(C)CC[C@H](C(C)(C)O)[C@@H]3CC[C@@]21C (stereo partly specified)	normalized growth	0.996
COc1cc2nc(N(C)CCCNC(=O)C3CCCO3)nc(N)c2cc1OC (stereo unspecified)	normalized growth	0.995
C=C1C2CC[C@@]3(C)[C@H](c4ccoc4)OC(=O)C[C@]13O[C@H]1CC(=O)C(C)(C)[C@H](C(OC(C)=O)C(=O)OC)[C@@]21C (stereo partly specified)	normalized growth	0.997
C[C@H]1COc2c(N3CCN(C)CC3)c(F)cc3c(=O)c(C(=O)O)cn1c23	normalized growth	1.03
O=C(O)CCCc1ccccc1	normalized growth	0.988
Cn1c(=O)c2c(ncn2CC(O)CO)n(C)c1=O (stereo unspecified)	normalized growth	0.949
Clc1ccc(C(c2ccc(Cl)cc2)C(Cl)(Cl)Cl)cc1	normalized growth	0.993
CC1(C)S[C@@H]2[C@H](NC(=O)[C@H](N)c3ccccc3)C(=O)N2[C@H]1C(=O)O	normalized growth	1.01
c1ccc2c(c1)CCCC2C1=NCCN1 (stereo unspecified)	normalized growth	0.999
COc1ccc(C(=O)CC(=O)O)c2c1C=CC(C)(C)O2	normalized growth	0.993
CCn1cc(C(=O)O)c(=O)c2cc(F)c(N3CCNC(C)C3)c(F)c21 (stereo unspecified)	normalized growth	0.98
COc1c(N2CCNC(C)C2)c(F)cc2c(=O)c(C(=O)O)cn(C3CC3)c12 (stereo unspecified)	normalized growth	0.997
CC1COc2c(N3CCN(C)CC3)c(F)cc3c(=O)c(C(=O)O)cn1c23 (stereo unspecified)	normalized growth	1.01
Cc1ncc(CNC(=O)N(CCCl)N=O)c(N)n1	normalized growth	0.987
COc1ccc(C(c2ccc(OC)cc2)C(Cl)(Cl)Cl)cc1	normalized growth	0.998
C[C@]12CCC(=O)C=C1C=CC1C2CC[C@@]2(C)C1CC[C@@]21CCC(=O)O1 (stereo partly specified)	normalized growth	0.979
O=C(O)CCCc1ccc(N(CCCl)CCCl)cc1	normalized growth	0.983
NCCC(O)C(=O)NC1CC(N)C(OC2OC(CN)C(O)C(O)C2N)C(OC2OC(CO)C(O)C2O)C1O (stereo unspecified)	normalized growth	0.993
O=C(O)c1cc2cc(F)ccc2[nH]1	normalized growth	1.02
CC(=O)O[C@H]1C[C@@H](OC(C)=O)C(C)(C)C2CC(=O)[C@]3(C)C(CC[C@@]4(C)[C@H](C(=O)O)OC(=O)C5OC543)[C@]21C (stereo partly specified)	normalized growth	0.986
COc1ccc(C(=O)O)cc1OC	normalized growth	0.985

----------
- method: chemical genetic growth profiling, strain panel (AID 1159580);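 note: tested at 20 µM; growth read once vehicle control cultures reached saturation at 30 °C; 1 = growth at the plate median or of vehicle wells; lower values mean less growth of the strain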
- details: S. cerevisiae deletion strains, growth OD, locus YBR021W, strain FUR4
Out of some 5,500 compounds screened, about 2,000 (36%) were called active. Roughly 18% stayed inconclusive and do not appear here. Cut-off read from the data, not from the text of the source: active = normalized growth mostly below about 0.91 (no sharp cut-off); inconclusive = no clear call, values can overlap the other calls; inactive = mostly above about 0.92. The list shows a part of the results.
Classes used: label 1 = active, label 0 = inactive

compound	category
CCCCCCCCC(=O)NCc1ccc(O)c(OC)c1	label 0
COc1ccc2c(c1)OC/C(=C\c1ccc(OC)c(O)c1)C2=O	label 1
C=C[C@@](C)(O)CCC1C(=C)C[C@H](OC(C)=O)C2C(C)(C)CCCC12C (stereo partly drawn)	label 0
COC(=O)/C=C/C(C)=C/C=C/C(C)=C/C=C/C=C(C)/C=C/C=C(C)/C=C/C(=O)O	label 0
O=c1c(-c2ccc(O)cc2)coc2cc(O)ccc12	label 0
C=C[C@@](C)(O)CCC1C(=C)CCC2[C@@](C)(CO)CCC[C@]12C (stereo partly drawn)	label 1
CC1(C)CCC[C@@]2(C)C1[C@@H](O)C[C@]1(C)C2CC[C@@H]2[C@@]3(C)CC[C@H](C(C)(C)O)[C@@H]3CC[C@@]21C (stereo partly drawn)	label 0
C/C=C(\C)C(=O)O[C@H]1C[C@@H](OC(C)=O)[C@@]2(C(=O)OC)CO[C@@H]3C2[C@]12CO[C@](O)(C(=O)OC)[C@H]2[C@](C)(C12O[C@@]1(C)[C@H]1C[C@@H]2OC2OC=C[C@@]21O)[C@@H]3O (stereo partly drawn)	label 0

----------
The following compounds are listed with their measured normalized growth values.
- method: chemical genetic growth profiling, strain panel (AID 1159580);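 note: tested at 20 µM; growth read once vehicle control cultures reached saturation at 30 °C; 1 = growth at the plate median or of vehicle wells; lower values mean less growth of the strain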
- details: S. cerevisiae deletion strains, growth OD, locus YAL026C, strain drs2, hits give low values
About 2,000 (36%) of roughly 5,500 compounds were called active. Inconclusive results (about 18%) are left out. The list shows a part of the results.
measurement_name: normalized growth

> print(dat)
                                   compound   measurement.name  measured.result
1  CC(=O)Oc1cc(OC(C)=O)c2c(c1)O[C@H](c1ccc(OC(C)=O)c(OC(C)=O)c1)[C@@H](OC(C)=O)C2  normalized growth            0.995
2  O=C(O[C@@H]1Cc2c(O)cc(O)cc2O[C@@H]1c1ccc(O)c(O)c1)c1cc(O)c(O)c(O)c1  normalized growth            0.923
3  CC[C@@]1(O)C[C@H](O[C@H]2C[C@H](N(C)C)[C@H](O)[C@H](C)O2)c2c(cc3c(c2O)C(=O)c2c(O)ccc(O)c2C3=O)[C@H]1C(=O)OC  normalized growth            0.813
4  Cc1ccccc1C(OCCN(C)C)c1ccccc1 (centres undefined)  normalized growth                1
